System: Plasmodium falciparum
Assay: MMV: Measure of pLDH activity as indication of parasite viability. Gametocytogenesis of 3D7 Plasmodium falciparum strain was induced in vitro and asexual parasites were depleted with N-acetylglucosamine. Gametocytes were treated with dihydroartemisinin, epoxomicin, methylene blue, primaquine, puromycin or chloroquine in 96-well plates and the pLDH activity was evaluated using a modified Makler protocol. Mosquito infectivity was measured by the standard membrane feeding assay.
Format: functional
Set-up: concentration or dose not given beside the values
experimentalEndpoint: Growth Inhibition (%)
Express the result in % but write the number alone.

Entry COCCN(C(=O)Cc1cccs1)C(C(=O)NCc1ccc(OC)cc1)c1ccc(C(C)C)cc1 (stereo not given) has what Growth Inhibition?
12.1412

What about this compound? COc1ccc(N2CCN(C(CNC(=O)CC(C)(C)C)c3ccc4c(c3)OCO4)CC2)cc1 (stereo not given)
14.9208

Next compound: CC1CC(C)CN(C(=O)c2ccc(Cl)cc2Cl)C1 (stereo not given)
-2.8594

Another compound to look at: O=C(NC1CCCCC1)C(c1cccs1)N(CCc1ccccc1)C(=O)c1ccco1 (stereo not given)
7.269

Similarly, COc1ccc2c(c1)C1(Nc3ccccc3-c3nc4ccccc4n31)C(=O)N2 (stereo not given) ?
23.3334

Entry to check: `c1ccc(CNc2nc(Nc3ccccc3)nc3ccccc23)cc1`
12.3006

For COc1ccc(Br)cc1C1Nc2ccc3ccccc3c2C2=C1C(=O)CC(c1ccccc1)C2 (stereo not given) then?
7.0344

Note, next up: `Cc1[nH]c(-c2ccc(F)cc2)cc1C(=O)NC1CCN(Cc2ccccc2)CC1`
9.4322

// repeat for C=C(C)CCC(C)N1CCC(N2CCC(C(=O)NCCc3ccccc3)CC2)CC1 (stereo not given) and report
9.4772

Same question, `O=C(NNc1cc(N2CCCC2)nc(N2CCCC2)n1)c1ccccc1` this time
2.419

----------
So I've got a bunch of molecules here, and I need their Growth Inhibition values.
Tested on: Plasmodium falciparum
Assay: MMV: Measure of pLDH activity as indication of parasite viability. Gametocytogenesis of 3D7 Plasmodium falciparum strain was induced in vitro and asexual parasites were depleted with N-acetylglucosamine. Gametocytes were treated with dihydroartemisinin, epoxomicin, methylene blue, primaquine, puromycin or chloroquine in 96-well plates and the pLDH activity was evaluated using a modified Makler protocol. Mosquito infectivity was measured by the standard membrane feeding assay.
Type: functional
Design: concentration or dose not given beside the values
Could you write the number and then its unit?

# get_value(readout='Growth Inhibition', item= `O=C(Nc1ccc(N2CCN(Cc3ccccc3)CC2)cc1)c1cccs1.O=C(O)C(F)(F)F` )
-8.6144%

// same read-out, input: `Cc1ccc(-c2nc3ccccc3o2)cc1NCc1cc(Cc2ccccc2)ccc1O`
21.1902%

Can you check `N#Cc1nc(Cc2cccc3ccccc23)oc1N1CCN(C(c2ccccc2)c2ccccc2)CC1` next?
-13.1388%

Continue with COc1ccc(NC(=O)C2c3ccccc3C(=O)N(CC(C)C)C2c2cccs2)cc1Cl (stereo not given)
14.3436%

Now try `COc1ccc(CCn2c(=N)c(C(=O)NCc3cccnc3)cc3c(=O)n4cccc(C)c4nc32)cc1` .
4.0678%

Another molecule to check: `Clc1ccc2[nH]c3c(NCCCN4CCOCC4)ncnc3c2c1`
9.617%

Same question, `Oc1ccc2ccccc2c1CNc1nc2ccccc2[nH]1` this time
8.4186%

Follow-up entry: `O=C(Nc1ccc(C23CC4CC(CC(c5ccccc5)(C4)C2)C3)cc1)c1cccs1`
4.2535%

`Br.CCn1c2c(c(=N)c3c1CCC3)CCCC2` ?
-4.7115%

Queued: `O=C(Nc1ccc(Cl)c(Cl)c1)Nc1ccc(Cl)c(Cl)c1`
10.3704%
